Test system: HEK 293 cells
Assay: ATP-Glo dose-response, HEK 293 cells
Type: cell-based, human
Conditions: Homo sapiens, HEK293; ATP Glo readout, 24 h treatment
Counter-ions that a name gives are not always drawn.
Task for the reader: assign each of the following molecules its reported EC50.
Answers are plain numbers, in µM.

Solved entries (count: 2):
CC[C@H](C)[C@H]1O[C@]2(CC[C@@H]1C)C[C@@H]1C[C@@H](C/C=C(\C)[C@@H](O[C@H]3C[C@H](OC)[C@@H](O[C@H]4C[C@H](OC)[C@@H](O)[C@H](C)O4)[C@H](C)O3)[C@@H](C)/C=C/C=C3\CO[C@@H]4[C@H](O)C(C)=C[C@@H](C(=O)O1)[C@]34O)O2 | 13
CC(NCCC(c1ccccc1)c1ccccc1)c1ccccc1 (stereo not drawn) [Fendiline hydrochloride] | 34

Okay, now this molecule:
Requested read-out: EC50. Entry: OCCN1CCN(CC/C=C2/c3ccccc3Sc3ccc(Cl)cc32)CC1 [Zuclopenthixol hydrochloride] 29

###

System: quiescent TG1 GSCs
Assay: ATP-Glo dose-response, quiescent TG1 GSCs
Format: cell-based, human
Settings: Homo sapiens, 24 h, ATP Glo readout, 24 h treatment, n = 3; read-out: Q TG1 GSCs EC50
Counter-ions that a name gives are not always drawn.
Readout type: pEC50
Answers are plain numbers, as −log10 of the molar value.

Example cases with answers are listed next.
CC(=O)[C@H]1CC[C@H]2[C@@H]3CCC4=CC(=O)CC[C@]4(C)[C@H]3CC[C@]12C | 4.60
Cc1c2ccncc2c(C)c2c1[nH]c1ccccc12 | 4.72
CCOC(=O)C1=C(C)NC(C)=C(C(=O)OC)C1c1cccc(Cl)c1Cl (centres unmarked) | 4.52
CC(C)(C)c1ccc(C(O)CCCN2CCC(C(O)(c3ccccc3)c3ccccc3)CC2)cc1 (centres unmarked) | 4.77
CCCCCCCCNC(C)C(O)c1ccc(SC(C)C)cc1 (centres unmarked) | 4.89
C#C[C@]1(O)CC[C@H]2[C@@H]3CCC4=CCCC[C@@H]4[C@H]3CC[C@@]21C | 4.37
C=C1C(=O)O[C@H]2[C@H]1CC/C(C)=C/CC[C@@]1(C)O[C@@H]21 [Parthenolide] | 4.32
OCCN1CCN(CC/C=C2/c3ccccc3Sc3ccc(Cl)cc32)CC1 [Zuclopenthixol hydrochloride] | 4.28

// each compound listed below needs its pEC50
1. C=C(CC)C(=O)c1ccc(OCC(=O)O)c(Cl)c1Cl
2. C1CCC(C(CC2CCCCN2)C2CCCCC2)CC1 (centres unmarked) [Perhexilin maleate]
3. CC(NCCC(c1ccccc1)c1ccccc1)c1ccccc1 (centres unmarked) [Fendiline hydrochloride]

[4.39, 4.85, 4.49]

Respectfully, I request pEC50 for each entry included below.
1. CC(Cc1ccccc1)NCCC(c1ccccc1)c1ccccc1 (centres unmarked) [Prenylamine lactate]
2. O=c1cc(-c2ccc(O)c(O)c2)oc2cc(O)cc(O)c12 [Luteolin, 3',4',5,7-tetrahydroxy-flavone]

4.57
4.70

###

System: proliferating TG1 GSCs
Settings: primary screen, 50 μM, 24 h
Where a name gives a salt, the structure may show the parent alone.
Readout type: Activity on proliferating TG1 GSCs (hit compounds reducing ATP levels)

CN[C@H]1CC[C@@H](c2ccc(Cl)c(Cl)c2)c2ccccc21 | yes
OC(c1cc(C(F)(F)F)nc2c(C(F)(F)F)cccc12)C1CCCCN1 (stereo not drawn) [Mefloquine hydrochloride] | yes
CNCCC=C1c2ccccc2C=Cc2ccccc21 | yes

###

Tested on: HEK 293 cells
Assay: ATP-Glo dose-response, HEK 293 cells
Assay type: cell-based, human
Settings: Homo sapiens, HEK293; ATP Glo readout, 24 h treatment
Readout type: pEC50
Numbers only, as −log10 of the molar value.

Solved entries:
C=C1C(=O)O[C@H]2[C@H]1CC/C(C)=C/CC[C@@]1(C)O[C@@H]21 [Parthenolide] | 4.89
CCOC(=O)C1=C(C)NC(C)=C(C(=O)OC)C1c1cccc(Cl)c1Cl (stereo not shown) | 4.26

List pEC50 for every entry below, keeping the order given.
1. Cc1c2ccncc2c(C)c2c1[nH]c1ccccc12
2. CC(=O)[C@H]1CC[C@H]2[C@@H]3CCC4=CC(=O)CC[C@]4(C)[C@H]3CC[C@]12C

1. 4.89
2. 4.44

###

Tested on: quiescent TG1 GSCs
Experiment: ATP-Glo dose-response, quiescent TG1 GSCs
Assay type: cell-based, human
Conditions: quiescent TG1 GSCs
Readout type: fold increase in EC50 (activity decrease) compared to DDPM (compound 2)

Oc1ccc(C(c2ccc(O)cc2)c2cccnc2)cc1 [Compound 15, 4,4'-dihydroxyphenyl-3-pyridinyl-methane] | ~ 8 fold
COc1ccc(C(c2ccc(O)cc2)c2ccccn2)cc1 (stereo not shown) | 8 fold

Turning now to a further compound:
Under quiescent TG1 GSCs: fold increase in EC50 (activity decrease) compared to DDPM (compound 2) value of `Oc1ccc(C(c2ccncc2)c2ccc(O)cc2)cc1` ? ~ 40 fold

###

System: quiescent TG16 GSCs
Test: ATP-Glo dose-response, quiescent TG16 GSCs
Type: cell-based, human
Conditions: Homo sapiens; ATP Glo readout, 24 h treatment; read-out: Q TG16 GSCs EC50
Counter-ions that a name gives are not always drawn.
Readout type: EC50 (µM)
One number for each entry, in µM.

CCOC(=O)C1=C(C)NC(C)=C(C(=O)OC)C1c1cccc(Cl)c1Cl (centres unmarked) [Felodipine] | 33
Cc1c2ccncc2c(C)c2c1[nH]c1ccccc12 [Ellipticine] | 56
C1CCC(C(CC2CCCCN2)C2CCCCC2)CC1 (centres unmarked) [Perhexilin maleate] | 21
CCCCCCCCNC(C)C(O)c1ccc(SC(C)C)cc1 (centres unmarked) [Suloctidil] | 14
CC(=O)Oc1ccc(C(c2ccc(OC(C)=O)cc2)c2ccccn2)cc1 [Compound 1, 4,4'-diacetoxydiphenyl-2-pyridyl-methane] | 1.3

# per-item lookup of EC50; items listed below
1. C=C(CC)C(=O)c1ccc(OCC(=O)O)c(Cl)c1Cl [Ethacrynic acid]
2. C#C[C@]1(O)CC[C@H]2[C@@H]3CCC4=CCCC[C@@H]4[C@H]3CC[C@@]21C [Lynestrenol]
3. OCCN1CCN(CC/C=C2/c3ccccc3Sc3ccc(Cl)cc32)CC1 [Zuclopenthixol hydrochloride]

12
28
48

###

System: HEK 293 cells
Test: ATP-Glo dose-response, HEK 293 cells
Assay type: cell-based, human
Settings: Homo sapiens, HEK293; ATP Glo readout, 24 h treatment
pEC50: −log10 of the molar value.
Readout type: pEC50

Completed entries (count: 2):
CC(=O)Oc1ccc(C(c2ccc(OC(C)=O)cc2)c2ccccn2)cc1 | < 4.00
C=C(CC)C(=O)c1ccc(OCC(=O)O)c(Cl)c1Cl | < 4.00

Moving on to the next compound.
Consider the compound O=c1cc(-c2ccc(O)c(O)c2)oc2cc(O)cc(O)c12 [Luteolin, 3',4',5,7-tetrahydroxy-flavone] and give its measured pEC50. < 4.00
